target: Cyclic GMP-AMP synthase (Homo sapiens); experiment: Inhibition of cGAS in dsDNA stimulated human Whole blood cell by measuring IFNalpha-2a production incubated for 60 mins followed by addition of double stranded DNA measured after 1350 mins by microplate reader assay; type: tissue-based
Sequence (Q8N884 whole entry): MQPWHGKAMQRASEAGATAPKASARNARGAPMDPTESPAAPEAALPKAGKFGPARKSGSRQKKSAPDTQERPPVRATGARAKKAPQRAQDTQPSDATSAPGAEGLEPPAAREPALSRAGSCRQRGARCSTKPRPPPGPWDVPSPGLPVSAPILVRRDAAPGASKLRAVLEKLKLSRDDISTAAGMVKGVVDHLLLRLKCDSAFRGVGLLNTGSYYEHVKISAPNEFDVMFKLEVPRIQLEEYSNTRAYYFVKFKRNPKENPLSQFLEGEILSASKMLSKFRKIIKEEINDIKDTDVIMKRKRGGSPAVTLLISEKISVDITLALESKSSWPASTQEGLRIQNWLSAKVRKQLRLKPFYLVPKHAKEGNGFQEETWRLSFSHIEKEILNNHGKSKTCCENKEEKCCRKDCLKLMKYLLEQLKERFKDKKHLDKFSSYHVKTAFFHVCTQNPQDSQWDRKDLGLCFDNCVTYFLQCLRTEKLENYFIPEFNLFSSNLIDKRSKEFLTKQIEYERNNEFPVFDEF
Response field label: string, one of satisfied (IC50 strictly below 8 nM) or not satisfied.

Check out these entries, answers already filled in.
| Record smiles | Qualitative label |
| --- | --- |
| CC(=O)[C@@H]1C[C@H]2CN1c1nc(nc3c1oc1ccccc13)CCOCCCC(=O)N1CC[C@@H]([C@@H](C)C1)n1c(nc3cc(Cl)ccc31)O2 | satisfied |
| C[C@H]1CN2CC[C@@H]1n1c(nc3cc(Cl)ccc31)O[C@H]1C[C@@H](C(=O)O)N(C1)c1nc(nc3c1oc1cc(Cl)ccc13)CCOCCCC2=O | not satisfied |
| C[C@H]1CN2CC[C@@H]1n1c(nc3ccccc31)O[C@H]1C[C@@H](C(=O)O)N(C1)c1nc(nc3c1oc1cc(Cl)ccc13)C(F)(F)CCCOCC2=O | satisfied |
| C[C@H]1CN2CC[C@H]1n1c(nc3ccccc31)O[C@H]1C[C@@H](C(=O)O)N(C1)c1nc(nc3c1oc1ccccc13)C(F)(F)COCCCCC2=O | satisfied |
| C[C@H]1CN2CC[C@@H]1n1c(nc3cc(Cl)ccc31)O[C@H]1C[C@@H](C(=O)O)N(C1)c1nc(nc3c1oc1ccccc13)C(F)(F)OCCCCC2=O | satisfied |

## Input I'd appreciate it if you could check whether `C[C@@H]1CN2CC[C@H]1n1c(nc3cc(Cl)ccc31)O[C@H]1C[C@@H](C(=O)O)N(C1)c1nc(nc3c1oc1ccccc13)CCOCCCC2=O` has IC50 smaller than 8 nM.
## Output not satisfied

## Input I'd appreciate it if you could check whether `C[C@@H]1CN2CC[C@H]1n1c(nc3ccccc31)O[C@H]1C[C@@H](C(=O)O)N(C1)c1nc(nc3c1oc1ccccc13)CCCCCOC2=O` has IC50 smaller than 8 nM.
## Output not satisfied

## Input I'd appreciate it if you could check whether `Cc1cccc2c1nc1n2[C@@H]2CCN(C[C@H]2C)C(=O)CCCCCC(F)(F)c2nc(c3oc4ccccc4c3n2)N2C[C@H](C[C@H]2C(=O)O)O1` has IC50 smaller than 8 nM.
## Output not satisfied

## Input I'd appreciate it if you could check whether `C[C@H]1CN2CC[C@@H]1n1c(nc3ccccc31)O[C@H]1C[C@@H](C(=O)O)N(C1)c1nc(nc3c1oc1ccccc13)CCCCCN(C)C2=O` has IC50 smaller than 8 nM.
## Output not satisfied

====

Reported pIC50 by item:
target: Cyclic GMP-AMP synthase (Homo sapiens); test: Inhibition of cGAS in human THP-1 cells expressed in baculovirus infected insect cells incubated for 18 hrs by Lucia luciferase reporter assay
// returns pIC50 (minus log10 of molar concentration), number only

The cases that follow already have their pIC50 on record.
| Record smiles | Obs value |
| --- | --- |
| C[C@H]1CN2CC[C@H]1n1c(nc3ccccc31)O[C@H]1C[C@@H](C(=O)O)N(C1)c1nc(nc3c1oc1ccccc13)C(F)(F)COCCCCC2=O | 9.36 |
| Cc1cccc2c1nc1n2[C@@H]2CCN(C[C@H]2C)C(=O)CCCCCC(F)(F)c2nc(c3oc4ccccc4c3n2)N2C[C@H](C[C@H]2C(=O)O)O1 | 6.74 |
| C[C@@H]1CN2CC[C@H]1n1c(nc3cc(Cl)ccc31)O[C@H]1C[C@@H](C(=O)O)N(C1)c1nc(nc3c1oc1ccccc13)CCOCCCC2=O | 7.41 |
| CC(=O)[C@@H]1C[C@H]2CN1c1nc(nc3c1oc1ccccc13)CCOCCCC(=O)N1CC[C@@H]([C@@H](C)C1)n1c(nc3cc(Cl)ccc31)O2 | 8.55 |
| C[C@H]1CN2CC[C@@H]1n1c(nc3cc(Cl)ccc31)O[C@H]1C[C@@H](C(=O)O)N(C1)c1nc(nc3c1oc1cc(Cl)ccc13)CCOCCCC2=O | 8.62 |

Now look at this one.
## Input Entry under review: `C[C@@H]1CN2CC[C@H]1n1c(nc3ccccc31)O[C@H]1C[C@@H](C(=O)O)N(C1)c1nc(nc3c1oc1ccccc13)CCCCCOC2=O` . Reported pIC50?
## Output 6.74
